- testedSystem: P97 (Homo sapiens (Human))
- assayOverview: P97 Biomolgreen ATPase assay, 200 μM ATP
- Type: biochemical
- studyConditions: P97 Biomolgreen, IC50 (μM)
valueType: IC50 (µM)
Write down the numeric answer in µM and omit the unit.

Which IC50 reading was recorded for the compound [2H]C1([2H])C([2H])([2H])C([2H])([2H])C([2H])(Sc2nnc(COc3cc(F)c(C#CCOC(=O)NC4CCN(C)CC4)cc3F)n2-c2cccnc2)C1([2H])[2H] ?
0.01

Dear colleague, I am looking for the recorded IC50 of the following compound: [2H]C1([2H])C([2H])([2H])C([2H])([2H])C([2H])(Sc2nnc(COc3ccc(C#CCOC(=O)OCC#Cc4ccc(OCc5nnc(SC6([2H])C([2H])([2H])C([2H])([2H])C([2H])([2H])C6([2H])[2H])n5-c5cccnc5)cc4C)c(C)c3)n2-c2cccnc2)C1([2H])[2H]
0.91

---

Please go through the items and note down their log10 of IC50.
- testedSystem: P97 (Homo sapiens (Human))
- assayOverview: P97 Biomolgreen ATPase assay, 200 μM ATP
- Assay type: biochemical
- studyConditions: read-out: P97 Biomolgreen, IC50
Reminder: these figures are log10 of reported IC50, in nM before transformation.

Return reported log10 of IC50; argument: Cc1cc(OCc2nnc(SC3C=CCCC3)n2-c2cccnc2)ccc1C#CCNC(=O)NCCN1CCN(C(C)C)CC1 (stereo not shown)
1.72

Would you mind telling me what log10 of IC50 value was observed for Cc1cc(OCc2nnc(SC3C=CCCC3)n2-c2cccnc2)ccc1C#CCNC(=O)NCC#Cc1ccc(OCc2nnc(SC3C=CCCC3)n2-c2cccnc2)cc1C (stereo not shown) ?
2.40

Given Cc1cc(OCc2nnc(SC3CC3)n2-c2cccnc2)ccc1C#CCNC(=O)OC(C)(C)C , state its recorded log10 of IC50.
3.30

State the recorded log10 of IC50 for this entry: OCC#Cc1ccc(OCc2nnc(SC3C=CCCC3)n2-c2cccnc2)cc1F (stereo not shown)
1.41

Any idea what its log10 of IC50 is? The compound is Cc1cc(OCc2nnc(SC3C=CCCC3)n2-c2cccnc2)ccc1C#CCOC(=O)NCCN1CCN(C)CC1 (stereo not shown)
1.40

What does the data say about its log10 of IC50? Entry: Cc1cc(OCc2nnc(SC3CCCC=C3F)n2-c2cccnc2)ccc1C#CCO (stereo not shown)
2.71

Any idea what log10 of IC50 was measured for Cc1cc(OCc2nnc(SC3C=CCCC3)n2-c2cccnc2)ccc1C#CCNC1CCCCC1 (stereo not shown) ?
1.60

---

- testedSystem: P97 (Homo sapiens (Human), UniProt P55072)
- Sequence (P55072 whole entry): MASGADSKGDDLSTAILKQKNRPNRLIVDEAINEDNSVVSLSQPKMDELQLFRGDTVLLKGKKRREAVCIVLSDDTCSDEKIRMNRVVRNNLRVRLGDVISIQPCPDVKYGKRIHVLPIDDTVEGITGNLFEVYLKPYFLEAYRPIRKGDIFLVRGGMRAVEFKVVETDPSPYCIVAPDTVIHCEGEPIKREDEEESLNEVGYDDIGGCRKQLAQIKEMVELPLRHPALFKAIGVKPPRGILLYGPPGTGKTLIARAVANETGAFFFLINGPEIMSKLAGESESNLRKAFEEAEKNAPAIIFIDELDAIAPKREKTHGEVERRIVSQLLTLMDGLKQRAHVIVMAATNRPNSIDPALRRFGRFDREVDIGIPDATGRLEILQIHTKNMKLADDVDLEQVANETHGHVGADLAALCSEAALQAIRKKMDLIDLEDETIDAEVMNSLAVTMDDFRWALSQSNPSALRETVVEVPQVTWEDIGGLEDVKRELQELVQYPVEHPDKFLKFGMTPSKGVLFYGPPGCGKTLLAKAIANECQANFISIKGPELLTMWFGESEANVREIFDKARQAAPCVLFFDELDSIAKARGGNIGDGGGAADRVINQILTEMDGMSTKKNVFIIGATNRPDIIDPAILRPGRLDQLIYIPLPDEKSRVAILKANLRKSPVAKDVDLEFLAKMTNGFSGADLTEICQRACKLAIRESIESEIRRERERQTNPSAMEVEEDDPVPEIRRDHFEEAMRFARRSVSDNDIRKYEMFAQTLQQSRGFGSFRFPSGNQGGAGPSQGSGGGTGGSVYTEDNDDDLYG
- assayOverview: P97 Biomolgreen ATPase assay, 200 μM ATP
- Format: biochemical
- studyConditions: read-out: P97 Biomolgreen, IC50
Criterion: IC50 strictly under 40 nM. Met: TRUE. Not met: FALSE.

Decide: IC50 of Cc1cc(OCc2nnc(SC3C=CCCC3)n2-c2cccnc2)ccc1C#CCNS(=O)(=O)N1CCCC1 (centres unmarked) strictly below 40 nM?
FALSE

Lab note: IC50 threshold 40 nM. Does this compound come in strictly under it? Cc1cc(OCc2nnc(SC3C=CCCC3)n2-c2cccnc2)ccc1C#CCNC1CCN(C)CC1 (centres unmarked)
TRUE

Lab note: confirm whether the reported IC50 for this compound is below 40 nM, equality not counting. compound: CCC(=O)NCC#Cc1ccc(OCc2nnc(SC3C=CCCC3)n2-c2cccnc2)cc1C (centres unmarked) [Compound 94]
TRUE

Item Cc1cc(OCc2nnc(SC3C=CCCC3)n2-c2cccnc2)ccc1C#CCNCc1ccc(F)cc1 (centres unmarked) : IC50 beneath 40 nM, strictly?
FALSE

Say whether its IC50 is strictly beneath 40 nM. Entry: Cc1cc(OCc2nnc(SC3C=CCCC3)n2-c2cccnc2)ccc1C#CCOC(=O)N1CCN(C(C)C)CC1 (centres unmarked)
TRUE

Please indicate whether the reported IC50 of Cc1cc(OCc2nnc(SC3C=CCCC3)n2-c2cccnc2)ccc1C#CCN(C)S(C)(=O)=O (centres unmarked) is strictly below 40 nM.
FALSE

Take the compound Cc1cc(OCc2nnc(SC3C=CCCC3)n2-c2cccnc2)ccc1C#CCNC(=O)C1CC1 (centres unmarked) and say whether its IC50 is less than 40 nM.
TRUE

---

Assignment: determine reported IC50 for the given compounds.
- testedSystem: P97 (Homo sapiens (Human), UniProt P55072)
- assayOverview: P97 Biomolgreen ATPase assay, 200 μM ATP
- Type: biochemical
- studyConditions: read-out: P97 Biomolgreen, IC50
Dear colleague, please return just the value in nM, with no unit written.

Suppose we examine the compound CN1CCC(NC(=O)OCC#Cc2c(F)cc(OCc3nnc(SC4C=CCCC4)n3-c3cccnc3)cc2F)CC1 (stereo not shown) [Compound 120] ; what IC50 value has been reported?
12

Would you kindly share the measured IC50 for Cc1cc(OCc2nnc(SC3C=CCCC3)n2-c2cccnc2)ccc1C#CCO (stereo not shown) [Compound 79] ?
37

// returns reported IC50 for input Cc1cc(OCc2nnc(SC3C=CCCC3)n2-c2cccnc2)ccc1C#CCNS(C)(=O)=O (stereo not shown) [Compound 14]
35

// query IC50 value for entry Cc1cc(OCc2nnc(SC3C=CCCC3)n2-c2cccnc2)ccc1C#CCOC(=O)N1CCN(C)CC1 (stereo not shown) [Compound 76]
30

Recorded IC50 of Cc1cc(OCc2nnc(SC3C=CCCC3)n2-c2cccnc2)ccc1C#CCNS(=O)(=O)N1CCN(C)CC1 (stereo not shown) [Compound 65] , please.
47

Name the recorded IC50 for Cc1cc(OCc2nnc(SC3C=CCCC3)n2-c2cccnc2)ccc1C#CCNS(=O)(=O)C1CCN(C(=O)OC(C)(C)C)CC1 (stereo not shown) [Compound 78] .
90

Look up IC50: Cc1cc(OCc2nnc(S(=O)(=O)C3C=CCCC3)n2-c2cccnc2)ccc1C#CCO (stereo not shown) [Compound 98]
4820

I am curious: what IC50 value has been reported for COC(=O)NCC#Cc1ccc(OCc2nnc(SC3CCCC3)n2-c2cccnc2)cc1C [Compound 12] ?
29

Could you share which IC50 value was measured for C#Cc1ccc(OCc2nnc(SC3CCCC3)n2-c2cccnc2)cc1C [Compound 2] ?
49

Which value of IC50 has been reported for C#Cc1ccc(OCc2nnc(SC3C=CCCC3)n2-c2cccnc2)cc1C (stereo not shown) [Compound 127] in the records?
38

---

- testedSystem: UniProt P55072
- assayOverview: P97 Biomolgreen ATPase assay, 200 μM ATP
- Format: biochemical
- studyConditions: read-out: P97 Biomolgreen, IC50
valueType: pIC50
Please report pIC50 as the negative decimal logarithm of the molar concentration, giving only the number.

Any idea what pIC50 was measured for Cc1cc(OCc2nnc(SC3C=CCCC3)n2-c2cccnc2)ccc1C#CCNC(=O)OC(C)(C)C (stereo not drawn) [Compound 40] ?
6.85

What does the record list as pIC50 for Cc1cc(OCc2nnc(SC3C=CCCC3)n2-c2cccnc2)ccc1C#CC1(O)COC1 (stereo not drawn) [Compound 34] ?
7.01

Return reported pIC50; argument: Cc1cc(OCc2nnc(SC3C=CCCC3)n2-c2cccnc2)ccc1C#CC(OC(=O)NCCN1CCN(C(C)C)CC1)C(F)(F)F (stereo not drawn) [Compound 62]
6.96

---

Would you kindly list IC50 for each of these compounds?
- testedSystem: P97 (Homo sapiens (Human), UniProt P55072)
- assayOverview: P97 Biomolgreen ATPase assay, 200 μM ATP
- Format: biochemical
- studyConditions: read-out: P97 Biomolgreen, IC50

Find IC50 (P97 (Homo sapiens (Human), UniProt P55072)) for the entry Cc1cc(OCc2nnc(SC3C=CCCC3)n2-c2cccnc2)ccc1C#CC1(NC(=O)OC(C)(C)C)CCCCC1 (stereo not shown)
1100 nM

Lab note: need IC50 with P97 (Homo sapiens (Human), UniProt P55072) for entry Cc1cc(OCc2nnc(SC3CCCC3)n2-c2cccnc2)ccc1C#CCN1CCOCC1 , please look it up.
39 nM

For P97 (Homo sapiens (Human), UniProt P55072), provide IC50 of Cc1cc(OCc2nnc(SCC3CC3)n2-c2cccnc2)ccc1C#CCO please.
130 nM

Query the reported IC50 for P97 (Homo sapiens (Human), UniProt P55072); item: N#Cc1ccc(C#CCOCc2nnc(SC3CCCC3)n2-c2cccnc2)cc1
> 6700 nM

---

- testedSystem: P97 (Homo sapiens (Human), UniProt P55072)
- assayOverview: P97 Biomolgreen ATPase assay, 200 μM ATP
- Type: biochemical
- studyConditions: P97 Biomolgreen, IC50 (μM)
Under this convention, criterion met denotes IC50 strictly below 0.07 µM and criterion not met denotes IC50 at or above 0.07 µM.

Strictly below 0.07 µM: is that where IC50 of [2H]C1([2H])C([2H])([2H])C([2H])([2H])C([2H])(Sc2nnc(COc3ccc(C#CCO)c(C)c3)n2-c2cccnc2)C1([2H])[2H] sits?
criterion met

Consider [2H]C1([2H])C([2H])([2H])C([2H])([2H])C([2H])(Sc2nnc(COc3ccc(C#CCNC4CCN(C(C)C)CC4)c(C)c3)n2-c2cccnc2)C1([2H])[2H] . Does its IC50 lie strictly below 0.07 µM?
criterion not met

Find out if reported IC50 for [2H]C1([2H])C([2H])([2H])C([2H])([2H])C([2H])(Sc2nnc(COc3ccc(C#CCOC(=O)NC4CCN(C)CC4)c(F)c3)n2-c2cccnc2)C1([2H])[2H] is less than 0.07 µM
criterion met

IC50 under 0.07 µM? Item: [2H]C1([2H])C([2H])([2H])C([2H])([2H])C([2H])(Sc2nnc(COc3ccc(C#CCOC(=O)NC4CCN(C)CC4)c(C)c3)n2-c2cccnc2)C1([2H])[2H]
criterion met

Determine if [2H]C1([2H])C([2H])([2H])C([2H])([2H])C([2H])(Sc2nnc(COc3ccc(C#CCN4CCS(=O)(=O)CC4)c(C)c3)n2-c2cccnc2)C1([2H])[2H] shows IC50 strictly lower than 0.07 µM.
criterion not met

Identify whether the compound [2H]C1([2H])C([2H])([2H])C([2H])([2H])C([2H])(Sc2nnc(COc3ccc(C#CC(C)OC)c(C)c3)n2-c2cccnc2)C1([2H])[2H] (centres unmarked) records IC50 below 0.07 µM.
criterion not met

Please check: IC50 for [2H]C1([2H])C([2H])([2H])C([2H])([2H])C([2H])(Sc2nnc(COc3ccc(C#CCOC(=O)NCCN4CCN(C(C)C)CC4)c(C)c3)n2-c2cccnc2)C1([2H])[2H] [Compound 21] , strictly under 0.07 µM or not?
criterion met
